Recorded values, source ChEMBL document CHEMBL4680319.

# Target Or System: Ubiquitin carboxyl-terminal hydrolase isozyme L3 (Homo sapiens)
# Sequence (P15374 whole entry): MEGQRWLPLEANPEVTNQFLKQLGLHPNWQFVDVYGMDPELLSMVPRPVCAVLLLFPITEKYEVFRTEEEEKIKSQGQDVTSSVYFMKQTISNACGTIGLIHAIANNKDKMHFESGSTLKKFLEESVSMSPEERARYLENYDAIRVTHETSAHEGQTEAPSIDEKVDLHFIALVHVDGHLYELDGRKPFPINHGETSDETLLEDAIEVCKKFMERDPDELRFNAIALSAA
# Assay Protocol: Inhibition of recombinant human UCHL3 assessed as reduction in cleavage of Ubiquitin-Rhodamine110-glycine to Ubiquitin and Rhodamine110-glycine using Ub-Rho 110 as substrate incubated for 30 mins by fluorescence based assay
Measured Metric: pIC50
The meaning of pIC50 here: minus log10 of the concentration in molar units.

Q: // pIC50 lookup, key: Nc1ccc(-c2cn(Cc3cc(C(=O)O)cc(-c4cccc(C(=O)O)c4)c3)nn2)cc1
Ans: 4.13
